experimental-target: Histidine--tRNA ligase (Leishmania infantum) (UniProt A4I591)
Sequence (whole entry): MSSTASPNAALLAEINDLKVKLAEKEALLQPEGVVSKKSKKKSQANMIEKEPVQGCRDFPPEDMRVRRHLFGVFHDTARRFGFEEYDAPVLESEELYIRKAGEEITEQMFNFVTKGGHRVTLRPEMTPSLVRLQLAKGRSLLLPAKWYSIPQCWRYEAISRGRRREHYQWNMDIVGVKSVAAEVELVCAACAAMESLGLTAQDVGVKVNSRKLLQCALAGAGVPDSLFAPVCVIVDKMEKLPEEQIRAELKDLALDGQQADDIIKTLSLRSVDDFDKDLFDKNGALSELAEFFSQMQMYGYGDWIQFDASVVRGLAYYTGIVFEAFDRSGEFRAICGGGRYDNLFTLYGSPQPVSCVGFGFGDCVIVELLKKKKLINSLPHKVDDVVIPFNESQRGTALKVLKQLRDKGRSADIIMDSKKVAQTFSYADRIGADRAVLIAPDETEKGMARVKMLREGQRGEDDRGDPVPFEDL
protocol-text: Leishmania infantum Histidine tRNA synthetase (LdHisRS)
Format: functional
Set-up: scale not given: in the data most compounds retested in dose-response had high values
condition-details: 30 µM
Out of some 69,000 compounds screened, about 420 (0.61%) showed an effect of 50% or more. This excerpt belongs to a sample that is enriched for strong results.
readout: Percent Effect (%)
Use % as the unit, but write only the number.

molecule="N#Cc1ccsc1N1CCC(Sc2ncc[nH]2)C1=O (stereo not drawn)" unit_tag=% reported=20.4
molecule=Cc1ccc(S(=O)(=O)Nc2ccc(=O)n(C)c2)c(Br)c1 unit_tag=% reported=32.7

Record CN(C)c1nc(CNC(=O)Nc2cccc([S+](C)[O-])c2)cs1 (stereo not drawn) , field Percent Effect: 27.1

Record O=C1CC(c2cccnc2)c2c(c(C(=O)O)cn2-c2ccccc2F)N1 (stereo not drawn) , field Percent Effect: 20.6

Record `CC(=O)c1c(C)nn(CC(=O)Nc2ccc(Br)cc2)c1C` , field Percent Effect: 71.3

Record `CCc1ccc(-c2c(C)c(-c3cnn(C)c3)nc(N)c2C#N)o1` , field Percent Effect: 19.7

Record `CCc1ccc(C(=O)N2C[C@@H]3COC[C@@H](C(=O)NC)[C@@H]3C2)cc1` , field Percent Effect: 14

Record `O=S(=O)(N1CCCC1)N1C[C@@H](c2cccc(F)c2)[C@@H]2NCCCCC[C@H]21` , field Percent Effect: -7.37
